# Tested on: NOMO1
# assay-notes: cell viability relative to DMSO control; higher = less cytotoxic
# details: HPLM + 10% dialyzed FBS; 48 h; 46.1 µM
Lab note: cut-off is 60%. Strictly less in cell viability is Met. Exactly 60% or more is Not met.

{"smiles-text": "CC(C)(C)c1cc(NC(=O)Nc2ccc(-c3cn4c(n3)sc3cc(OCCN5CCOCC5)ccc34)cc2)no1", "class": "Not met"}
{"smiles-text": "Cc1c(CCOc2ccc(C(=O)O)cc2)c2cc(Cl)ccc2n1C(c1ccccc1)c1ccccc1", "class": "Not met"}
{"smiles-text": "COc1nccc(-c2c(-c3ccc(F)cc3)ncn2C2CCNCC2)n1", "class": "Met"}
{"smiles-text": "CCCCCCCCCCCCCCCCCCCCCCO", "class": "Not met"}
{"smiles-text": "C#Cc1cccc(Nc2ncnc3cc(OCCOC)c(OCCOC)cc23)c1", "class": "Met"}

## Task Is the reported cell viability for `CC(C)[C@@H](N(CCCN)C(=O)C1=CC=C(C)C=C1)C/2=N/C3=CC(=CC=C3C(=O)N2CC4=CC=CC=C4)Cl` strictly below 60%?
## Result Met

## Task Is the reported cell viability for `COC1=CC2=NC=CC(=C2C=C1)OC3=CN=C(NC(=O)C/4=C(C)/N(CC(C)(C)O)N(C4=O)C5=CC=CC=C5)C=C3` strictly below 60%?
## Result Not met

## Task Is the reported cell viability for `Oc1ccc2c3c1O[C@H]1c4[nH]c5c(c4C[C@@]4(O)[C@@H](C2)N(CC2CC2)CC[C@]314)C[C@@]1(O)[C@H]2Cc3ccc(O)c4c3[C@@]1(CCN2CC1CC1)[C@H]5O4` strictly below 60%?
## Result Not met

====

# Tested on: P12-Ichikawa
# assay-notes: cell viability relative to DMSO control; higher = less cytotoxic
# details: RPMI 5 mM glucose + 10% dialyzed FBS; 48 h; 46.1 µM
metric: cell viability (%)
# output: bare number, implied unit %

Worked cases, answers included:
{"molecule": "CC(C)NCC(O)COc1ccc(COCCOC(C)C)cc1 (configuration not stated)", "value-observed": 104}
{"molecule": "CCN(CC)CC#CCOC(=O)C(O)(c1ccccc1)C1CCCCC1 (configuration not stated)", "value-observed": 111}
{"molecule": "C[C@H](NC(=O)/C(C#N)=C/c1cccc(Br)n1)c1ccccc1", "value-observed": 6.61}

cell viability recorded for this molecule, O=C(NOCC(O)CO)c1cc(Br)c(F)c(F)c1Nc1ccc(I)cc1F (configuration not stated) , is 58.7

cell viability recorded for this molecule, `COc1ccc(-c2cc3nccn3c(Nc3ncccc3C(N)=O)n2)cc1OC` , is 102

cell viability recorded for this molecule, `COC(=O)Nc1nc2cc(C(=O)c3cccs3)ccc2[nH]1` , is 48

====

This listing pairs molecules with measured cell viability.
# Tested on: P12-Ichikawa
# assay-notes: cell viability relative to DMSO control; higher = less cytotoxic
# details: RPMI 5 mM glucose + 10% FBS; 48 h; 15.4 µM
# output: bare number, implied unit %

{"molecule": "COc1cc2nc(N(C)CCCNC(=O)C3CCCO3)nc(N)c2cc1OC (stereo not drawn)", "system-tested": "P12-Ichikawa", "value-observed": 93.9}

cell viability recorded for this molecule, `C\C1=C\C(=O)OC2=C1C=CC(=C2)O` , is 118

cell viability recorded for this molecule, `OC1=CC=C(C=C1)\C2=C\OC3=C(C=CC(=C3)O)C2=O` , is 86.9

cell viability recorded for this molecule, `CC[C@H](CC#N)OC(=O)N[C@@H](C)c1cccc(NC(=O)Nc2ccc(-c3cnco3)c(OC)c2)c1` , is 33.4

cell viability recorded for this molecule, `COc1cc2c(cc1-c1c(C)noc1C)ncc1[nH]c(=O)n([C@H](C)c3ccccn3)c12` , is 48.5

cell viability recorded for this molecule, `CN(C)c1ccc(O)c2c1C[C@H]1C[C@H]3[C@H](N(C)C)C(O)=C(C(N)=O)C(=O)[C@@]3(O)C(O)=C1C2=O` , is 94.9

cell viability recorded for this molecule, `C#Cc1cccc(Nc2ncnc3cc(OCCOC)c(OCCOC)cc23)c1` , is 83.6

cell viability recorded for this molecule, `CC(C)[C@@H](N(CCCN)C(=O)C1=CC=C(C)C=C1)C/2=N/C3=CC(=CC=C3C(=O)N2CC4=CC=CC=C4)Cl` , is 7.78

cell viability recorded for this molecule, `COC(=O)Nc1nc2cc(C(=O)c3cccs3)ccc2[nH]1` , is 11.8

cell viability recorded for this molecule, `c1cncc(CN2CCC(n3ncc4c(N5CCOCC5)nc(-c5ccc6[nH]ccc6c5)nc43)CC2)c1` , is 32.6

====

This listing pairs compounds with measured cell viability.
# System: P12-Ichikawa
# assay-notes: cell viability relative to DMSO control; higher = less cytotoxic
# details: HPLM + 10% dialyzed FBS; 48 h; 0.0211 µM
# output: bare number, implied unit %

Worked cases, answers included:
{"compound": "FC(F)(F)c1ccc(/C=C/c2nc(COc3ccc(CCCCn4ccnn4)cc3)co2)cc1", "result-units": "%", "value-observed": 97.3}
{"compound": "CC(=O)O[C@H]1C(=O)[C@]2(C)[C@@H](O)C[C@H]3OC[C@@]3(OC(C)=O)C2[C@H](OC(=O)C4=CC=CC=C4)[C@]5(O)C[C@H](OC(=O)[C@H](O)[C@@H](NC(=O)C6=CC=CC=C6)C7=CC=CC=C7)\\C(=C1/C5(C)C)C (stereo partly drawn)", "result-units": "%", "value-observed": 27.6}

Continue with the next compound.
cell viability recorded for this compound, `CC(C)c1cnn2c(NCc3ccccc3)cc(N[C@@H](CO)[C@H](O)CO)nc12` , is 127

====

# System: P12-Ichikawa
# assay-notes: cell viability relative to DMSO control; higher = less cytotoxic
# details: RPMI 5 mM glucose + 10% dialyzed FBS; 48 h; 15.4 µM
Lab note: cut-off is 90%. Strictly less in cell viability is class 1. Exactly 90% or more is class 0.

## Task Is the reported cell viability for COC[C@H]1OC(=O)C2=COC3=C2[C@@]1(C)\C4=C(C5CCC(=O)[C@@]5(C)C[C@H]4OC(C)=O)/C3=O (some centres not stated) strictly below 90%?
## Result class 0

## Task Is the reported cell viability for `COc1nccc(-c2c(-c3ccc(F)cc3)ncn2C2CCNCC2)n1` strictly below 90%?
## Result class 0

## Task Is the reported cell viability for `COc1cc2c(cc1-c1c(C)noc1C)ncc1[nH]c(=O)n([C@H](C)c3ccccn3)c12` strictly below 90%?
## Result class 1

## Task Is the reported cell viability for CN1[C@@H]2CC[C@H]1CC(OC(=O)c1c[nH]c3ccccc13)C2 (some centres not stated) strictly below 90%?
## Result class 0

## Task Is the reported cell viability for `Cc1cn2c(-c3cn[nH]c3)cnc2c(Nc2ccc(C(=O)N3CCNCC3)cc2F)n1` strictly below 90%?
## Result class 1

## Task Is the reported cell viability for `COc1c(C)cnc(Cn2cnc3c(Cl)nc(N)nc32)c1C` strictly below 90%?
## Result class 1

## Task Is the reported cell viability for `C[C@@H](NC1=CC=CC=C1C(O)=O)C/2=C/C(=C\N3C(=O)/C=C(\N=C23)N4CCOCC4)C` strictly below 90%?
## Result class 1

## Task Is the reported cell viability for `CC1=CC=CC=C1N2\C(=N/C3=C(C(=CC=C3)C)C2=O)C[N]4C=NC5=C4N=CN=C5N` strictly below 90%?
## Result class 1

## Task Is the reported cell viability for `CC1(C)CCC[C@]2(C)[C@H]3CC(=O)O[C@]3(C)CC[C@@H]12` strictly below 90%?
## Result class 0

## Task Is the reported cell viability for `C=C(C)[C@@H]1CC[C@]2(C(=O)O)CC[C@]3(C)[C@H](CC[C@@H]4[C@@]5(C)CC[C@H](O)C(C)(C)[C@@H]5CC[C@]43C)[C@@H]12` strictly below 90%?
## Result class 0

## Task Is the reported cell viability for CC(NC1=CC=CC=C1)C\2=C\C(=C/N3C(=O)\C=C(/N=C23)N4CCOCC4)C (configuration not stated) strictly below 90%?
## Result class 0

## Task Is the reported cell viability for `O=C(OC)[C@]12CC[C@@]3(C)[C@]4(C)CC[C@H]5[C@@](C)(C)C(=O)C(=C[C@]5(C)C4=CC(=O)[C@@H]3[C@@H]2C[C@](C)(C)CC1)C#N` strictly below 90%?
## Result class 1

## Task Is the reported cell viability for `C[C@]12CC[C@@H]3c4ccc(OC(=O)N(CCCl)CCCl)cc4CC[C@H]3[C@@H]1CC[C@@H]2OP(=O)([O-])[O-].[Na+].[Na+]` strictly below 90%?
## Result class 0

## Task Is the reported cell viability for CCN(CC)CC#CCOC(=O)C(O)(c1ccccc1)C1CCCCC1 (configuration not stated) strictly below 90%?
## Result class 0

## Task Is the reported cell viability for `CC(C)OC(=O)OCOP(=O)(CO[C@H](C)Cn1cnc2c(N)ncnc21)OCOC(=O)OC(C)C.O=C(O)C=CC(=O)O` strictly below 90%?
## Result class 0
